Reference for the values: patent US7105564B1

# SUBJECT OF TEST: UniProt:Q13258
# ASSAY SUMMARY: Binding activity to PGD2 receptor in human platelet membrane fraction ([3H]PGD2)
# Design: The platelets were homogenized using a homogenizer (Ultra-Turrax) followed by centrifugation 3 times at 20,000 rpm; from tissue; host or cells: human platelet membrane fraction from blood of healthy volunteers
# TEST CONTEXT: 5 nM [3H]PGD2, 4° C., 90 min; read-out: Binding activity to PGD2 receptor in human platelet membrane fraction IC50
MEASURED ATTRIBUTE: pIC50
Answers are plain numbers, as −log10 of the molar value.

Sample answers from the record:
>>> print(df.to_string())
                                   compound  measurement
0  Cc1ccc(Cc2ccc(C(=O)NC3C4CCC(C4)C3CC=CCCCC(=O)O)s2)s1 (centres unmarked)         7.96
1  Cc1ccc(S(=O)(=O)c2ccc(C(=O)NC3C4CCC(C4)C3CC=CCCCC(=O)O)s2)s1 (centres unmarked)         7.49
2  O=C(O)CCCC=CCC1C2CCC(C2)C1NC(=O)c1ccn(S(=O)(=O)c2cccs2)c1 (centres unmarked)         9.00

Please go through the list and note pIC50 for each compound.
1. O=C(O)CCCC=CCC1C2CCC(C2)C1NC(=O)c1csc2c(Cc3ccsc3)cccc12 (centres unmarked)
2. O=C(O)CCCC=CCC1C2CCC(C2)C1NC(=O)c1ccc(Sc2cccs2)s1 (centres unmarked)

Marked response:
1. 9.21
2. 9.39

---

Field: IC50. Provide a value for each of the molecules that follow.
# SUBJECT OF TEST: PGD2 receptor (Homo sapiens)
# Sequence (Q13258 whole entry): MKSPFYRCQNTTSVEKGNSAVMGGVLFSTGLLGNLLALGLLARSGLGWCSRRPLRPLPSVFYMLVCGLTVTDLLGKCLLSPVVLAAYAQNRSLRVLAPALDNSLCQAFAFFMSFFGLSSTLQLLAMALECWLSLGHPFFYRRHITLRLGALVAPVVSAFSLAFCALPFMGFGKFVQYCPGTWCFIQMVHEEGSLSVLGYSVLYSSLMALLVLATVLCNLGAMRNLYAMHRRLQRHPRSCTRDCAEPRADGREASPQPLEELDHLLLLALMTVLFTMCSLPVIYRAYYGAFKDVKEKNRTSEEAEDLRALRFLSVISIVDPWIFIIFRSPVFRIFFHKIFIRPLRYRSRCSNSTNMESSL
# ASSAY SUMMARY: Binding activity to PGD2 receptor in human platelet membrane fraction ([3H]PGD2)
# Set-up: The platelets were homogenized using a homogenizer (Ultra-Turrax) followed by centrifugation 3 times at 20,000 rpm; from tissue; host or cells: human platelet membrane fraction from blood of healthy volunteers
# TEST CONTEXT: 5 nM [3H]PGD2, 4° C., 90 min; read-out: Binding activity to PGD2 receptor in human platelet membrane fraction IC50
# Experimental: Experiment 1 Binding activity to PGD2 Receptor (1) Preparation of Human Platelet Membrane Fraction […] To a binding-reaction solution (50 mM Tris/HCl, pH 7.4, 5 mM MgCl2) (0.2 ml) were added the human platelet membrane fraction (0.1 mg) and 5 nM [^3H]PGD2 (115 Ci/mmol), and the mixture was reacted at 4° C. for 90 min. […] The specific-binding ratio was calculated by subtracting the non-specific binding ratio which is the radioactivity similarly measured in the presence of 10 μM PGD2 from the total binding.
Answers are plain numbers, in nM.

In [3]: df
Out[3]:
                                   molecule  measurement
0  O=C(O)CCCC=CCC1C2CCC(C2)C1NC(=O)c1ccc(Sc2ccsc2)s1 (centres unmarked) [Compound I-79]         0.42
1  Cc1cccn1S(=O)(=O)c1ccc(C(=O)NC2C(CC=CCCCC(=O)O)CC3CC2C3(C)C)s1 (centres unmarked) [II-34]          1.5
2  O=C(O)CCCC=CCC1C2CCC(C2)C1NC(=O)c1ccc(SCc2cccs2)s1 (centres unmarked) [Compound I-106]           13

Please go through the list and note IC50 for each molecule.
1. O=C(O)CCCC=CCC1C2CCC(C2)C1NC(=O)c1ccc(Cc2cc3ccccc3o2)s1 (centres unmarked) [Compound I-136]
2. O=C(O)CCCC=CCC1C2CCC(C2)C1NC(=O)c1ccc(Cc2cccs2)s1 (centres unmarked) [Compound I-93]
3. O=C(O)CCCC=CCC1C2CCC(C2)C1NC(=O)c1ccc(CSc2cccs2)s1 (centres unmarked) [Compound I-104]
4. O=C(O)CCCC=CCC1C2CCC(C2)C1NC(=O)c1ccc(S(=O)(=O)c2ccsc2)s1 (centres unmarked) [Compound I-80]
5. O=C(O)CCCC=CCC1C2CCC(C2)C1NC(=O)c1ccc(Cc2csc3ccccc23)s1 (centres unmarked) [Compound I-182]

Marked response:
[23, 7, 0.1, 6.6, 61]
